Data provenance: the supplement of paper PMC6555819

Reported PBM binding z-score values follow for various sequences
- Test system: VDR homodimer (NR concentration 270 nM)
- Assay comment: PBM binding z-score (relative to random genomic background probes); higher = stronger binding; sequences stand for … in GC…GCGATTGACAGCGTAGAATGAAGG
Endpoint label: PBM binding z-score

- Item sequence: "ACAGACAGGTGATGAAGATAACTCAGGCTATCAT"
  Experimental result: -0.302
- Item sequence: "CTCGATAGGTCGTGCTCAGGTGAGTATACCAAAC"
  Experimental result: 0.0382
- Item sequence: "CCAGACAGGTGATAGGTAACTCAGTCTGGTACGC"
  Experimental result: -0.505
- Item sequence: "ACTATTATTTGAGACGAGGGCAACCGATAGGTTG"
  Experimental result: 1.75
- Item sequence: "CCTAGCAGGCCAATCTGGGTCAGTCAAGGCTTGA"
  Experimental result: -0.52
- Item sequence: "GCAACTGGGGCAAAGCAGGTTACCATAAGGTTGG"
  Experimental result: -0.248
- Item sequence: "GCGACTGGGGCATCAGCAGGTTGCCATAACTTAA"
  Experimental result: -0.425
- Item sequence: "CGAACTAGGTCATCCAGGACAGGGAATACATTGA"
  Experimental result: 1.73
- Item sequence: "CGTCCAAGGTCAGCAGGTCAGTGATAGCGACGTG"
  Experimental result: 1.75
- Item sequence: "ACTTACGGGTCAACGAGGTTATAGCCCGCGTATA"
  Experimental result: 3.48
- Item sequence: "ACTATTAGTTGACTTAGGGCAATCGATACGACGC"
  Experimental result: 0.448
- Item sequence: "TCTACTAGTTGATTAGGGCAACCGAAACAGCGGA"
  Experimental result: -0.302

* * *

- Test system: LXRb:RXRa (NR concentration 270 nM, RXRa partner concentration 90 nM)
- Assay comment: PBM binding z-score (relative to random genomic background probes); higher = stronger binding; sequences stand for … in GC…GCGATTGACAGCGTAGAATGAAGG
Please note: satisfied applies when PBM binding z-score is 2 or greater, and not satisfied applies otherwise.

- Item sequence: "ATCGAAAGGTCGACGTGGTGAGTATACACCGTTT"
  Assigned label: "satisfied"
- Item sequence: "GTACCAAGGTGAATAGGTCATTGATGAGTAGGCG"
  Assigned label: "satisfied"
- Item sequence: "CCAGACAGGTCAGAAGGTAACTCAGCCTCGATTA"
  Assigned label: "not satisfied"
- Item sequence: "CAGCTTAGGTCAGGGCCAGTATAGGAGGAACGTT"
  Assigned label: "not satisfied"
- Item sequence: "ATAATGAGGTTACCAAAGATCAGGGAAACGCTTG"
  Assigned label: "satisfied"
- Item sequence: "CGTGCAAGGTCAAGGTCAGTGAAAGAGACTCGAA"
  Assigned label: "satisfied"

* * *

- Tested on: PPARg:RXRa DBDmut IVT, anti-RXR (DBD mutation: RXRa K156A/R161A, NR concentration 270 nM, RXRa partner concentration 90 nM)
- Assay comment: PBM binding z-score (relative to random genomic background probes); higher = stronger binding; sequences stand for … in GC…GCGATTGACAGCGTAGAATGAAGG
Please note: T applies when PBM binding z-score is 2 or greater, and F applies otherwise.

- Item sequence: "TCGAGTAGGTTAGTCGGGGCATCCAGCCAACATA"
  Assigned label: "T"
- Item sequence: "ATCTCTAGGAAAAAGTTCAGTGAATCCCGAGGAT"
  Assigned label: "F"
- Item sequence: "CAAACTAGGTCAAGGTCAAAGCCGGTTTGTGCCA"
  Assigned label: "T"
- Item sequence: "TATAGAGGGTCAAAGGCCAGAGTACGAATGTCGA"
  Assigned label: "T"
- Item sequence: "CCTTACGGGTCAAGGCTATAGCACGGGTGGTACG"
  Assigned label: "F"
- Item sequence: "GCGACTGGGGCGTCAGCAGGTTACCATAACTTAA"
  Assigned label: "F"
- Item sequence: "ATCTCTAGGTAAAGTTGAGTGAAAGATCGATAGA"
  Assigned label: "T"
- Item sequence: "AGAATGAGGTTTAGATCAGGGAAACAGAATACAT"
  Assigned label: "F"
- Item sequence: "GGAACGAGGGCATTCGAGTTGAGAGCATGGCGAT"
  Assigned label: "T"
- Item sequence: "GTACCAAGGTCAATAGGTCGTTGATGAGTAGGCG"
  Assigned label: "T"
- Item sequence: "CCGACTTGGGCAAGGTTACCATAACGCACAGCCA"
  Assigned label: "F"

* * *

- Tested on: PPARg:RXRa 90nM:30nM, anti-RXR (NR concentration 90 nM, RXRa partner concentration 30 nM)
- Assay comment: PBM binding z-score (relative to random genomic background probes); higher = stronger binding; sequences stand for … in GC…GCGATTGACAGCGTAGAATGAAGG
Reported PBM binding z-score values follow for various sequences

- Item sequence: "TTACCAAGGTGAGCTGAGGTCGTAGATCCAACTC"
  PBM binding z-score: 0.588
- Item sequence: "ATCTCTAGGTAACCAAGTTCAGTTAATGCCGAAC"
  PBM binding z-score: 0.659
- Item sequence: "GCATATAGGTAATACACGGTGAAAGTCCGATTGT"
  PBM binding z-score: 0.684
- Item sequence: "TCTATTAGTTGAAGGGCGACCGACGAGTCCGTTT"
  PBM binding z-score: 2.9
- Item sequence: "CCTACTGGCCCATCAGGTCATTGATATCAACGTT"
  PBM binding z-score: 0.701
- Item sequence: "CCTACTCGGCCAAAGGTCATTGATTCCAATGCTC"
  PBM binding z-score: 9.61
- Item sequence: "TCATATAGGTAATACAGATGAAAGTCGGCATCTA"
  PBM binding z-score: 2.97
- Item sequence: "TCTGCTAGGTCAACGATGGTCTGCTAATCTGCTA"
  PBM binding z-score: 2.11
- Item sequence: "AGAATGAGGTTAAGATCAGGGAGACAGAATACAT"
  PBM binding z-score: 1.62
- Item sequence: "AGAATGAGGTTACCGAAGATCAGGGAAACGCTTG"
  PBM binding z-score: 2.55
- Item sequence: "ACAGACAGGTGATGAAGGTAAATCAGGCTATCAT"
  PBM binding z-score: -0.0561
- Item sequence: "GGATATAGGTAATACAAGGTGAAAGTCCGATTGT"
  PBM binding z-score: 1.87
- Item sequence: "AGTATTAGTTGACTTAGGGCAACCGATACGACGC"
  PBM binding z-score: 0.623
- Item sequence: "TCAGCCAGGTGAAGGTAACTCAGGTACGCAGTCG"
  PBM binding z-score: 1.5
- Item sequence: "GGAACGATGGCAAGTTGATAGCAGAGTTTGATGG"
  PBM binding z-score: -0.709
- Item sequence: "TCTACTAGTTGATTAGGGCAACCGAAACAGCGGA"
  PBM binding z-score: 2.31
- Item sequence: "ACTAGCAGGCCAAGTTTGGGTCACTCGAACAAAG"
  PBM binding z-score: 0.14
- Item sequence: "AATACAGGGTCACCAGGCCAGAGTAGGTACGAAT"
  PBM binding z-score: 5.35
- Item sequence: "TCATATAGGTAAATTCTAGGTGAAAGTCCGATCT"
  PBM binding z-score: 3.75
- Item sequence: "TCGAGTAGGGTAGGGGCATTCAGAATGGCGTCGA"
  PBM binding z-score: 1.4
- Item sequence: "GCTTATAGATCAAGGTTAAGAAAGACTAAGCTAA"
  PBM binding z-score: 1.13
- Item sequence: "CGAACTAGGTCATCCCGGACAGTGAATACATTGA"
  PBM binding z-score: 6.17
- Item sequence: "ACTAGCAGGCCAACGGTCACTCAAGATTAGTCCG"
  PBM binding z-score: 3.72
- Item sequence: "CCTACTGGGCCACGAACGGTCATTGATTCAGTGA"
  PBM binding z-score: 0.515
- Item sequence: "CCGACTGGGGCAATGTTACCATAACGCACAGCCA"
  PBM binding z-score: 0.223
- Item sequence: "AGAATAAGGTTATTAAGATCAGGGAATTGCGGTC"
  PBM binding z-score: 1.38

* * *

- System: PPARg:RXRa (NR concentration 180 nM, RXRa partner concentration 90 nM)
- Assay comment: PBM binding z-score (relative to random genomic background probes); higher = stronger binding; sequences stand for … in GC…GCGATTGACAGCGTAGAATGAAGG
Reported PBM binding z-score maps to class as: category 1 (below 0.6), category 2 (0.6 to below 4), category 3 (4 or more)

- Item sequence: "CCTATTAGTTGAACATAAGGGCAACCGAAGCTCG"
  Assigned label: "category 1"
- Item sequence: "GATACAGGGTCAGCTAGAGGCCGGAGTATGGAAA"
  Assigned label: "category 2"
- Item sequence: "ATCTCTACGTAACAAGTTCAGTGAAAGAGAGGAC"
  Assigned label: "category 1"
- Item sequence: "ATCGAAAGGTCGAAGGTGAGTAAACCCACCCGAA"
  Assigned label: "category 3"
- Item sequence: "CGTCAAAGTTCAACGAAGGTAACGTAAAGCACGC"
  Assigned label: "category 3"
- Item sequence: "TCATATAGGTAATACAGGTGATAGTCGGCATCTA"
  Assigned label: "category 2"
- Item sequence: "GTACCAAGGTGAATAGGTCGTTTATGAGTAGGCG"
  Assigned label: "category 2"
- Item sequence: "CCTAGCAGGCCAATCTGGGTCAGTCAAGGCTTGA"
  Assigned label: "category 1"
- Item sequence: "TGGAGTAGGTTACCAATGGGGCATTCAGCTTTCT"
  Assigned label: "category 2"
- Item sequence: "AATACAGGGTCAATAGGCCAGAGTAGGTACGAAT"
  Assigned label: "category 3"
- Item sequence: "CCTCAAAGTTCAAGGTAACGTAACAGAAAGCAGC"
  Assigned label: "category 2"
- Item sequence: "GATACAGGGTCAAGGCCAGGGTACGCGTATTGAT"
  Assigned label: "category 3"
- Item sequence: "GCCATTAGTTGAAAGGGCAACCGAATGATTCTCG"
  Assigned label: "category 2"
- Item sequence: "CCTACTGGGCCAAAGATCATTGATTCCAATGCTC"
  Assigned label: "category 3"
- Item sequence: "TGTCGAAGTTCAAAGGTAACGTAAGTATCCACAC"
  Assigned label: "category 3"
- Item sequence: "TAGAGTAGGTTACCAATGGGGCATTCAGCTTTCT"
  Assigned label: "category 2"
- Item sequence: "GCTAGCAGGCCATTGGGGTCACTCAATGACGGGC"
  Assigned label: "category 2"
- Item sequence: "CGTCAAAGTTCAAGGTAACGCAACAGAAAGCAGC"
  Assigned label: "category 3"
- Item sequence: "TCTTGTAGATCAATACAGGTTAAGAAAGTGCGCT"
  Assigned label: "category 1"
- Item sequence: "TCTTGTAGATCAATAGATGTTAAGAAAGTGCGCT"
  Assigned label: "category 1"
- Item sequence: "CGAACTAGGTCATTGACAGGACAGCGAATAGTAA"
  Assigned label: "category 3"
- Item sequence: "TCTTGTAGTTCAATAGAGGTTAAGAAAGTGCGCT"
  Assigned label: "category 1"
